read-out: UDP glucuronosyltransferase (UGT1A1), UGT1A1 (gene 54658); assay: LTEA_HepaRG_UGT1A1: Life Technologies and Expression Analysis (LTEA) Assay for UDP glucuronosyltransferase (UGT1A1) using HepaRG (AID 2283538); conditions: mRNA level, 48 h; actives raise or lower the signal
Activity calls are given as the source filed them. How the source made its calls: active means hit-call score of the fitted dose curve at least 0.9, where 1 is the maximum; inactive means score below 0.9.
Pick from True (active), False (inactive) when you respond.

Field: example entries. Status: answers known.
Exercise: Would you mind telling me which call this test gave Oc1cc2ccccc2c2ccccc12 ?
Solution: False

Exercise: Recorded test outcome, item N#C[C@@H]1CC(F)(F)CN1C(=O)CNC1CC2CCC(C1)N2c1ncccn1 (some centres undefined)
Solution: False

Exercise: Per the assay record, what outcome was assigned to CC(C)(C)CC(C)(C)c1ccc(O)c(-n2nc3ccccc3n2)c1 ?
Solution: True

New cases:
Exercise: How did this test come out for CCCOC(=O)c1ccc(O)cc1 ?
Solution: False

Exercise: Please share the test call associated with OCCC(F)(F)C(F)(F)C(F)(F)C(F)(F)C(F)(F)C(F)(F)F .
Solution: False

Exercise: Write down the call the test reported for this compound. Item: CC(C)(C)c1cc(C(C)(C)C)c(O)c(C(C)(C)C)c1
Solution: True

Exercise: Could you kindly confirm the outcome this assay logged for CCCCC(CC)COC(=O)CCCCC(=O)OCC(CC)CCCC (centres undefined) ?
Solution: False

Exercise: Answer briefly: the call reported for OCCC(F)(F)C(F)(F)C(F)(F)C(F)(F)C(F)(F)C(F)(F)C(F)(F)C(F)(F)F in this assay.
Solution: False

Exercise: Can you look up the reported call for C[C@@H]1C[C@H]2[C@@H]3CCC4=CC(=O)C=C[C@]4(C)[C@@]3(F)[C@@H](O)C[C@]2(C)[C@@]1(O)C(=O)COP(=O)(O)O for me?
Solution: False

Exercise: Lab log entry: OC1CCCCC1 — outcome as called in the assay?
Solution: False

Exercise: Per the records of this test, what outcome belongs to CC1=C(/C=C/C(C)=C/C=C/C(C)=C/C(=O)O)C(C)(C)CCC1 ?
Solution: True

Exercise: What did this assay record as the result for CCCCCCCCOC(=O)CCCCCCCCC(=O)OCCCCCCCC ?
Solution: False

Exercise: Could you please tell me the result logged for CN1CCC[C@H]1c1cccnc1 in this assay?
Solution: False

Exercise: # outcome recorded in this test, key = Cc1cc(CCN2CCN(c3nsc4ccccc34)CC2)cc2c1NC(=O)CC2(C)C
Solution: True

Exercise: Any idea what this test logged for CC[C@H](C)[C@@H](C(=O)O)n1sc2ccccc2c1=O ?
Solution: False

Exercise: Identify the outcome logged in this assay for the compound shown: CCOC(=O)CC(O)(CC(=O)OCC)C(=O)OCC
Solution: False
